Measured values drawn from patent US5108930A for this set.

TEST: elimination half-life of aminoguanidine in plasma of patients (HPLC assay) for measurement of kidney function
Assay type: in vivo, human
EXPERIMENTAL SETUP: human, plasma, po, 300 mg, patient 10, GFR 148.9; 300 mg oral aminoguanidine hydrochloride; plasma at 10, 14, 18 hours; read-out: AG T1/2 (converted)
MEASURED ATTRIBUTE: half-life

Would you mind telling me what half-life value was observed for N=C(N)NN [aminoguanidine] ?
3.94 h

====

TEST: elimination half-life of aminoguanidine in plasma of patients (HPLC assay) for measurement of kidney function
Type: in vivo, human
EXPERIMENTAL SETUP: human, plasma, po, 300 mg, patient 1, GFR 12.8; 300 mg oral aminoguanidine hydrochloride; plasma at 10, 14, 18 hours; read-out: AG T1/2 (converted)
MEASURED ATTRIBUTE: half-life (h)
Write the value in h as a bare number.

Would you mind telling me what half-life value was observed for `N=C(N)NN` ?
24.6

====

TEST: elimination half-life of aminoguanidine in plasma of patients (HPLC assay) for measurement of kidney function
Assay type: in vivo, human
EXPERIMENTAL SETUP: human, plasma, po, 300 mg, patient 11, GFR 111.9; 300 mg oral aminoguanidine hydrochloride; plasma at 10, 14, 18 hours; read-out: AG T1/2 (converted)
MEASURED ATTRIBUTE: half-life
Your answer should be a number followed by the unit of measure.

Would you mind telling me what half-life value was observed for N=C(N)NN [aminoguanidine] ?
6.82 h

====

TEST: elimination half-life of aminoguanidine in plasma of patients (HPLC assay) for measurement of kidney function
Format: in vivo, human
EXPERIMENTAL SETUP: human, plasma, po, 300 mg, patient 9, GFR 117.2; 300 mg oral aminoguanidine hydrochloride; plasma at 10, 14, 18 hours; read-out: AG T1/2 (converted)
MEASURED ATTRIBUTE: half-life (h)
Write the value in h as a bare number.

Would you mind telling me what half-life value was observed for N=C(N)NN [aminoguanidine] ?
4.73
